Test system: 786-0
Test: NCI tumour cell line growth inhibition, 48 h
The source made the active and inactive calls. No stated cut-off is given here; in the data, active = GI50 up to about 1.1 µM and inactive = higher.
assay.endpoint: GI50

# molecule `CCSC1=N/C(=C\c2ccco2)C(Cl)=N1` ; its GI50 = > 100 µM (inactive)

The recorded GI50 for `NCc1ccc(C(=O)O)cc1` is > 100 µM (inactive)

Summary for this molecule, `O=C1C=CC(=O)c2c1cc1ccccc1c2O` : GI50 is 7.67 µM (inactive)

Record C[N+](C)(C)c1ncnc2c1ncn2C1CC(O)C(CO)O1 (configuration not stated) . Reported GI50: > 100 µM (inactive)

Lab book: GI50 of `COc1ccc(/C=C/C(=O)c2cc(CN(C)C)c(O)c(CN(C)C)c2)cc1` noted as 74 µM (inactive)

The value of GI50 measured for the molecule O=C1CC(=O)NC(NN2C(=O)CSC2c2ccccc2)=N1 (configuration not stated) turned out to be > 100 µM (inactive)

For this molecule ( `O=C1c2ccccc2C(=O)c2c(NC3CCCCC3)ccc(Nc3ccc(S(=O)(=O)O)cc3)c21` ), measured GI50 is 45.7 µM (inactive)

Reported GI50 of O=C(O)C12C3CCC(C3)C1(C(=O)O)C1CCC2C1 (configuration not stated) : > 100 µM (inactive)

The molecule identified as CC(C)c1cc(C(C)C)c(P2(=O)CC3C(Cl)(Cl)C3(C)C2)c(C(C)C)c1 (configuration not stated) registered its GI50 at 6.22 µM (inactive)

Memo: `C=CC1=C(C)c2cc3[nH]c(c4c5nc(cc6[nH]c(cc1n2)c(C=O)c6CC)C(C)=C5C(=O)[C@@H]4C(=O)OC)[C@@H](CCC(=O)O)[C@@H]3C` , reported GI50: > 100 µM (inactive)

Memo: `CCOC(=O)c1cn2c(n1)sc1cc(Cl)cc(Cl)c12` , reported GI50: > 100 µM (inactive)

Quick note, GI50 for `CS(=O)(=O)Nc1ccc2ccccc2c1-c1c(NS(C)(=O)=O)ccc2ccccc12` landed at > 15.5 µM (inactive)

Per the records, this molecule ( `CC(=O)c1[nH]c(Nc2ccc(C)cc2)c(C(=S)Nc2ccccc2)c1N` ) has GI50 equal to 17.7 µM (inactive)

molecule `COc1ccc(/C=C/c2cnc3ccccc3n2)cc1OC` , GI50 observed: 53.6 µM (inactive)

Entry `N=C(CC(=O)NOC(=O)c1ccccc1)NOC(=O)c1ccccc1` — recorded GI50 = > 100 µM (inactive)

Field GI50 (entry `COc1cccc(/C=N/C(/N=C/c2cccc(OC)c2O)c2cccc(OC)c2O)c1O` ) reads 23.3 µM (inactive)

// field: GI50; key: `CC(C)CNc1nc2ncnc(N)c2[nH]1` ; value = > 100 µM (inactive)

Value of GI50 reported for the molecule `CN(C(=O)Cc1ccccc1)n1cn[n+](CC(=O)OC(C)(C)C)c1` is > 10 µM (inactive)

GET /value?item= `Cc1ccc(C(=O)/C=C(\O)C(=O)NN=C(c2ccccc2)c2ccccc2)cc1` &field=GI50 returns 28.4 µM (inactive)

Measured GI50 of `COc1ccc2c(Cc3c4ccccc4cc4ccccc34)cncc2c1O` : 4.21 µM (inactive)

Reported GI50 ( CC(=O)OCC1=CC2CCC3C(C)(CCC[C@]3(C)COC(C)=O)C23CC[C@H]1C3 (some centres not stated) ) = 57.3 µM (inactive)

The reported GI50 of the molecule CN1C2CCC1C(C(O)c1ccccc1[N+](=O)[O-])C(=O)C2 (configuration not stated) was 44 µM (inactive)

----------
Tested on: A498
Experiment: NCI tumour cell line growth inhibition, 48 h
Calls of active or inactive are those of the source. Rule as the data show it: active = GI50 up to about 1.1 µM and inactive = higher.
Kindly state GI50 for each of the entries shown.

Reported GI50 ( `CC/N=C(\N)CSS(=O)(=O)O` ) = > 100 µM (inactive)

Measured GI50, O=P(O)(O)CC1OC(CO)C(O)C1O (stereo unspecified) : > 100 µM (inactive)

Lookup result for `FC(F)(F)c1ccc(/N=N/N2CCCC2)cc1` ; measured GI50: > 100 µM (inactive)

Record CC1(CO)OC(n2cnc3c(N)ncnc32)C(O)C1O (stereo unspecified) , field GI50: > 100 µM (inactive)

GET /value?item= `CN(C)N1C(=O)C(=O)N(c2cccc3ccccc23)C1=O` &field=GI50 returns > 10 µM (inactive)

GI50 reported for this compound CC(=O)OCC1OC(n2c3c(c(-c4ccc(Cl)cc4)c(C#N)c2=S)CCCC3)C(OC(C)=O)C(OC(C)=O)C1OC(C)=O (stereo unspecified) : 35.2 µM (inactive)

----------
Tested on: Malme-3M
Test: NCI tumour cell line growth inhibition, 48 h
The source made the active and inactive calls. Rule as the data show it: active = GI50 up to about 1.1 µM and inactive = higher.
Give your call using only these classes: active, inactive

Test call, this molecule: `Cc1ccc(/N=N/c2ccc(N(CCC#N)CCC#N)cc2C)c(Br)c1`
inactive

What did this assay record as the result for `CC(=N/NC(=S)N1CCCCC1)/C(=N\NC(=S)N1CCCCC1)c1ccccc1` ?
inactive

Recorded test call requested for `N#CCCN(CCCCN(CCC#N)C(=O)Nc1ccccc1)C(=O)Nc1ccccc1`
inactive

Per the records of this test, what outcome belongs to `O=Cc1cc(O)ccc1Br` ?
inactive

Call for entry `COc1cccc(/C=C2/S/C(=N/Nc3nc(C)c(C(C)=O)s3)NC2=O)c1O` :
inactive

What did the test return for `COc1ccc2nc3cc(Cl)ccc3c(NCCCCCC(=O)NC(COc3ccc4ccc5cccnc5c4n3)COc3ccc4ccc5cccnc5c4n3)c2c1` ?
inactive

Recorded test call requested for COc1c(CC(C)O)c2c3c(CC(C)O)c(OC)c(=O)c4c(O)cc5c(c6c(cc(O)c(c1=O)c62)OCO5)c43 (centres undefined) [CERCOSPORIN]
active

Each molecule tested received a call. Report the one for CC(=O)c1ccc2c(c1)CC1(C2)Cc2cc3c(cc2C1=O)CCC3 (centres undefined) .
inactive

Dear all, I need the recorded test outcome for `O=C(c1ccco1)N(C(=S)N1CCN(c2ccccc2)CC1)c1ccccc1` , thank you.
inactive

Hello, I am checking results. What call was entered for COC(=O)C1=Cc2cc(OC)c(OC)cc2[C@H](c2ccc(OC)c(OC)c2)C1C(=O)OC (some centres undefined) ?
inactive

Outcome logged for CC(=O)OCC1=CC2CCC3C(C)(CCC[C@]3(C)COC(C)=O)C23CC[C@H]1C3 (some centres undefined) in this assay:
inactive

Could you please tell me the result logged for `CSC1=N/C(=C\c2c[nH]c3ccccc23)C(=O)N1` in this assay?
inactive

What was the test verdict on `CC12ON(P(=O)(c3ccccc3)c3ccccc3)C(C)(c3ccccc31)c1ccccc12` ?
inactive

What is the recorded call for this molecule in the test? `CCC(CC)n1c(C)nc2c1C(=O)c1ccccc1C2=O`
inactive

I'd appreciate the recorded outcome for `N=C(CC(=O)NOC(=O)c1ccccc1)NOC(=O)c1ccccc1` from this test.
inactive

Called result for `COC(=O)c1cc2c3c(ccc2[nH]1)N(C(=O)c1cc2c4c(ccc2[nH]1)N(C(=O)c1cc2c5c(ccc2[nH]1)N(C(N)=O)CC5)CC4)CC3`
inactive

Outcome logged for `COC(=O)C1=C(C(=O)OC)SC(=C2S[C@@H]3[C@@H]4C[C@H]([C@@H]3S2)[C@H]2C(=O)OC(=O)[C@@H]42)S1` in this assay:
inactive

Field: outcome | Entry: `Cc1nc(N)nc(N)c1CCCCc1ccc(N)cc1`
inactive

Which result was noted for this molecule in the test: `Fc1ccccc1CN1COc2c(cc(Cl)c3cccnc23)C1`
inactive

----------
System: OVCAR-4
Test: NCI tumour cell line growth inhibition, 48 h
Calls of active or inactive are those of the source. Cut-off read from the data, not from the text of the source: active = GI50 up to about 1.1 µM and inactive = higher. *1 amine or outer side, *2 acyl side, *3 side chain or, on linkers, in order; H or OH if unused. Where a SMILES comes first, the peptide text is derived from it. Bridges are numbered along the chain shown (N, C = ends). Roman numbers before positions name the chains, in order. [ ]: non-standard residue; d: D form. Actinocin(9to1) = Cc1c2oc3c(C)ccc(C(=O)[*:1])c3nc-2c(C(=O)[*:2])c(N)c1=O; NMeV = CN[CH](C(=O)O)C(C)C; Sar = CNCC(=O)O
Use one of these outcomes when replying: TRUE for active, FALSE for inactive

Tell me the assay call for `C=COC(=O)N[C@H]1CCc2cc(OC)c(OC)c(OC)c2-c2ccc(SC)c(=O)cc21` please.
FALSE

Dear colleague, could you share the recorded outcome for `CN(C)NC(=O)/C(=C/c1ccc(Cl)cc1)NC(=O)c1ccccc1` when you have a moment?
FALSE

Check the results log: what was the call for COc1cc(C2c3cc4c(cc3OC(NC3CCCCC3)C2C)OCO4)cc(OC)c1OC (centres undefined) ?
TRUE

# lookup: test call for CC(C)c1cc(C(C)C)c(P2(=O)CC3C(Cl)(Cl)C3(C)C2)c(C(C)C)c1 (centres undefined)
FALSE

Please share the test call associated with C[N+](C)(C)c1ncnc2c1ncn2C1CC(O)C(CO)O1 (centres undefined) .
FALSE

# fetch the recorded call for `O=C(O[C@@H](/C=C/c1ccccc1)P1(=O)N(Cc2ccccc2)[C@@H]2CCCC[C@H]2N1Cc1ccccc1)c1ccccc1` here
FALSE

Call for entry `CCOC(=O)c1ccc(C(=O)OCC)n1-c1cc2cc(c1)CSCc1cc(cc(-n3c(C(=O)OCC)ccc3C(=O)OCC)c1)CSC2` :
FALSE

Field: outcome | Entry: `N#C/C(=C\c1ccc2ccccc2c1)c1ccccc1`
FALSE

GET /call?item= `COc1ccc2c(Cc3c4ccccc4cc4ccccc34)cncc2c1O` returns the recorded outcome of this test.
FALSE

For `COc1ccc(/C=C/c2cnc3ccccc3n2)cc1OC` , what call appears in the results of this test?
FALSE

Would you mind telling me which call this test gave `Nn1c(S)nnc1COc1cccc(OCc2nnc(S)n2N)c1` ?
FALSE

// return assay outcome for `CC(C)N(C(=O)C1(O)c2ccccc2C=Cc2ccccc21)C(C)C`
FALSE

Recorded test call requested for `Clc1ccc(/N=C/c2cc3cc(Br)ccc3nc2Cl)cc1`
FALSE

# fetch the recorded call for COCC1OC(N2C(=O)NC(=O)[C@@H]3C=C4CCCCC4=C[C@@H]32)C(OC)C1OC (some centres undefined) here
FALSE

Hi, do you know how `CS(=O)(=O)Nc1ccc2ccccc2c1-c1c(NS(C)(=O)=O)ccc2ccccc12` came out in this test?
FALSE

// param item: `Cc1ccc2ccc(=O)oc2c1` ; yields the recorded call
FALSE

What was the test verdict on `N#Cc1c(N2CCN(c3ccc([N+](=O)[O-])cc3)CC2)[n+]([O-])c2ccc(-c3ccc([N+](=O)[O-])cc3)cc2[n+]1[O-]` ?
FALSE

Record request — test call for CC1OC1C(=O)P(=O)(O)O (centres undefined)
FALSE

What is the recorded call for this molecule in the test? `COc1cccc(/C=C2/S/C(=N/Nc3nc(C)c(C(C)=O)s3)NC2=O)c1O`
FALSE

Hey, what did the test say about `C=CC1=C(C)c2cc3[nH]c(c4c5nc(cc6[nH]c(cc1n2)c(C=O)c6CC)C(C)=C5C(=O)[C@@H]4C(=O)OC)[C@@H](CCC(=O)O)[C@@H]3C` ?
FALSE

Fill in: this test's call for `CC/C=C/C[C@H](O)[C@H]1C[C@H]2O[C@H](CC(=O)OC)C[C@H]2O1` is ___
FALSE

Fill in: this test's call for `CC(C)[C@H]1CO[C@@H]2O[C@H](C)CC(=O)N21` is ___
FALSE

Look up the recorded call for Cc1c2oc3c(C)ccc(C(=O)NC4C(=O)NC(C(C)O)C(=O)N5CCCC5C(=O)N(C)CC(=O)N(C)C(C(C)C)C(=O)OC4C)c3nc-2c(C(=O)NC2C(=O)NC(C(C)O)C(=O)N3CCCC3C(=O)N(C)CC(=O)N(C)C(C(C)C)C(=O)OC2C)c(N)c1=O (centres undefined) (I: TTP[Sar][NMeV] / II: TTP[Sar][NMeV]; ester I:1-I:C, II:1-II:C; linker I:N-II:N via Actinocin(9to1); configuration not given here) in this test.
TRUE

Lab log entry: Cc1ccc(S(=O)(=O)N/N=C2/C3C(CC2(C)C)C2(C)CCCC3(C)C2O)cc1 (centres undefined) — outcome as called in the assay?
FALSE

Would you mind telling me which call this test gave `NN=C(S)Nc1cccc(Cl)c1` ?
FALSE

Record lookup: outcome of this test for COC(=O)C1=Cc2cc(OC)c(OC)cc2[C@H](c2ccc(OC)c(OC)c2)C1C(=O)OC (some centres undefined) ?
FALSE

Just curious, what result did CCNC1CC(C(C)(C)NCC)CC=C1C (centres undefined) get here?
FALSE

What was the test verdict on O=C1c2ccccc2C2(c3ccc(Cl)cc3)N[C@H]3CCCC[C@@H]3N12 (some centres undefined) ?
FALSE

Each molecule tested received a call. Report the one for `Cc1ccc(S(=O)(=O)OCCOCCOCCOCCOCCOS(=O)(=O)c2ccc(C)cc2)cc1` .
FALSE

# lookup: test call for O=C(CCCN1CCC(C(O)c2ccc(F)cc2)CC1)c1ccc(F)cc1 (centres undefined)
FALSE

Field: outcome | Entry: `Clc1ccc(CCn2ccc3ccccc32)c(Cl)c1`
FALSE

Give the logged outcome of this assay for the following molecule: COC(=O)C1CCC(=O)C(Sc2ccccc2)C1 (centres undefined)
FALSE

Hi team, can someone confirm the assay call for `N=C(CC(=O)NOC(=O)c1ccccc1)NOC(=O)c1ccccc1` ?
FALSE

What call does the record list for `Oc1cccc(-c2nc3ccccc3s2)c1` ?
FALSE

Which result was noted for this molecule in the test: `CCc1nc2c(n1CC)C(=O)c1ccccc1C2=O`
FALSE

Call for entry `Nc1nc(SCc2ccccc2[N+](=O)[O-])c2[nH]cnc2n1` :
FALSE

Could you please tell me the result logged for `CC(C)(C)c1ccc(OCC(=O)O)c(Cl)c1` in this assay?
FALSE

Status in this test for `O=c1oc(-c2ccccc2)cn1-c1ccccc1` ?
FALSE

# outcome recorded in this test, key = `CC(C)(C)[C@H]1NC(=O)CN1C(=O)OCc1ccccc1`
FALSE
